In this section, each of the compounds is paired with its reported melting point.

Some compounds with recorded melting point:
>  <compound>
Cc1cc(C)c(C2C(=O)CC(Cc3ccccc3C)C2=O)c(C)c1 (stereo not drawn) [Compound A15]

>  <melting point>
210 to 215.5 °C

$$$$
>  <compound>
Cc1cc(C)c(C2C(=O)CC(Cc3ccc(C#N)cc3)C2=O)c(C)c1 (stereo not drawn) [Compound A19]

>  <melting point>
249 to 251 °C

$$$$
>  <compound>
Cc1cc(C)c(C2C(=O)CC(Cc3ccc(-c4csnn4)cc3)C2=O)c(C)c1 (stereo not drawn) [Compound A16]

>  <melting point>
225 to 232 °C

$$$$

input: Determine from records and report melting point for Cc1cc(C)cc(CC2CC(=O)C(c3c(C)cc(C)cc3C)C2=O)c1 (stereo not drawn) [Compound A21]
output: 181 to 184 °C

input: Determine from records and report melting point for Cc1cc(C)c(C2C(=O)CC(Cc3cc(F)cc(F)c3)C2=O)c(C)c1 (stereo not drawn) [Compound A20]
output: 193 to 193.2 °C

input: Determine from records and report melting point for Cc1cc(C)c(C2C(=O)CC(Cc3ccc(F)cc3)C2=O)c(C)c1 (stereo not drawn) [Compound A12]
output: 183.1 to 183.2 °C
